Molecular target: GSPT1 (Homo sapiens, UniProt P15170+Q96SW2)
Sequence (P15170 whole entry): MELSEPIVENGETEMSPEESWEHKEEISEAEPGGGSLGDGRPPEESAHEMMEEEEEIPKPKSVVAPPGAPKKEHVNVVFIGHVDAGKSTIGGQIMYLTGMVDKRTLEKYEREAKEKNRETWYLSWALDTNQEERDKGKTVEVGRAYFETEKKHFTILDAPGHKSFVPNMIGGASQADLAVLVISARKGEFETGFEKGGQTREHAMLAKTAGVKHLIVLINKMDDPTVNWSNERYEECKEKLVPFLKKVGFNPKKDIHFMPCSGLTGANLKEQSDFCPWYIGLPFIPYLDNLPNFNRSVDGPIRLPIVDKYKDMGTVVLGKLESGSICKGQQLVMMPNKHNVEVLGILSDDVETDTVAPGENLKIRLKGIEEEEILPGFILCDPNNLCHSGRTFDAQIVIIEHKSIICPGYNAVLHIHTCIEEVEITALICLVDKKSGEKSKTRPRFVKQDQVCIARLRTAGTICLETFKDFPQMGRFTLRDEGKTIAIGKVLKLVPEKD
Sequence (Q96SW2 whole entry): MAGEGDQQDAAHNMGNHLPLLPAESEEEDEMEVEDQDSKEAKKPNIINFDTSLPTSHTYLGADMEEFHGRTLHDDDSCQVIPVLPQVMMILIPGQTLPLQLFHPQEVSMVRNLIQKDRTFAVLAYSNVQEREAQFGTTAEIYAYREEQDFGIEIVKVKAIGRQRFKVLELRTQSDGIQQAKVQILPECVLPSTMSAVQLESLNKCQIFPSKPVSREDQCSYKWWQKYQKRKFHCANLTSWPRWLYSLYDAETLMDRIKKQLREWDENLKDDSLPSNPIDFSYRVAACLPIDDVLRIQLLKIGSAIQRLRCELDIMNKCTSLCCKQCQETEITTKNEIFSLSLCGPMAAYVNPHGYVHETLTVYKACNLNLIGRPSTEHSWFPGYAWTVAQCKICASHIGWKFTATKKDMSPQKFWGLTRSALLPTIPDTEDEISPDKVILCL
Sequence (Q16531 whole entry partner): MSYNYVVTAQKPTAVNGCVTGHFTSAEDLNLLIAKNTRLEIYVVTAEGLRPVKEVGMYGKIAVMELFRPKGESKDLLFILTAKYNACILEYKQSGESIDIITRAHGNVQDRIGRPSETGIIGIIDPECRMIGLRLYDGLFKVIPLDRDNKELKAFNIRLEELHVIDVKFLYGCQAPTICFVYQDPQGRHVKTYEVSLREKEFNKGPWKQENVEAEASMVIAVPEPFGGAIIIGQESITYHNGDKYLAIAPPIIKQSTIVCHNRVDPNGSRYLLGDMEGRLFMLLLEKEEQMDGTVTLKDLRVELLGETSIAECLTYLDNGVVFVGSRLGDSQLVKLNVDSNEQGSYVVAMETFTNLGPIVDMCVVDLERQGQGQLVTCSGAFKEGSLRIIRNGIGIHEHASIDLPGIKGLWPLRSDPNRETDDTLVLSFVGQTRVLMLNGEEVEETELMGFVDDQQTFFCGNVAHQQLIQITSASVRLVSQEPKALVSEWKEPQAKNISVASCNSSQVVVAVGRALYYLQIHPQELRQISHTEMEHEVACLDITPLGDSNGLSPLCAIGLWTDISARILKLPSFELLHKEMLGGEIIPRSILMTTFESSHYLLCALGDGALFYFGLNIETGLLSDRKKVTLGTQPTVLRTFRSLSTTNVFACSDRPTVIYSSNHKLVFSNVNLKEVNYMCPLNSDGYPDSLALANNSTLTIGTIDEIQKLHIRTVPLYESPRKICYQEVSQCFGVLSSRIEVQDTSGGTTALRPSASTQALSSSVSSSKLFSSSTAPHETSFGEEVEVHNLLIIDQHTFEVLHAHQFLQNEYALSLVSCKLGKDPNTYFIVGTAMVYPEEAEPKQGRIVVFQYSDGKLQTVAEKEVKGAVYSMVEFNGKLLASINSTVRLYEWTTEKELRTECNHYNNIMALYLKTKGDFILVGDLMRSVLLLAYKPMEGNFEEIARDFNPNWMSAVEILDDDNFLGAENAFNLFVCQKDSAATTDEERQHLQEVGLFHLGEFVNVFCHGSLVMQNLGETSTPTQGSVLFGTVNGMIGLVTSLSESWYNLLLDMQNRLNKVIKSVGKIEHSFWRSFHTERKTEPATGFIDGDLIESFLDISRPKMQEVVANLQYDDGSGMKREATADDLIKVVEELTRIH
Experiment: HiBiT degradation assay, GSPT1, Procedure A
Assay type: cell-based
Set-up: HiBit-GSPT1 KI HEK293(LgBit) Cells; host or cells: HEK293(LgBit) knock-in cells
Settings: six hours
Outcome measure: DC50

1) Cn1cnc(-c2ccc3c(c2)CN(C2CCC(=O)NC2=O)C3=O)c1-c1ccc2c(c1)CCCO2 (stereo not shown) [Example 514]; ≥ 25 nM
2) Cn1cnc(-c2ccc3c(c2)CN(C2CCC(=O)NC2=O)C3=O)c1-c1ccc2[nH]ncc2c1 (stereo not shown) [Example 510]; ≥ 25 nM
3) [2H]C([2H])([2H])n1cc(-c2ccc3c(c2)CN(C2CCC(=O)NC2=O)C3=O)nc1-c1ccccc1 (stereo not shown) [Example 437]; < 25 nM
4) Cc1cc(Cl)ccc1-c1nc(-c2ccc3c(c2)CN(C2CCC(=O)NC2=O)C3=O)cn1C (stereo not shown) [Example 562]; < 25 nM
5) Cn1nc(-c2ccc3c(c2)CN(C2CCC(=O)NC2=O)C3=O)nc1[C@H]1CC[C@H](C)CC1 (stereo partly shown) [Example 616]; ≥ 25 nM
6) Cn1ncc(-c2ccc3c(c2)CN(C2CCC(=O)NC2=O)C3=O)c1-c1ccc(OC(F)F)cc1 (stereo not shown) [Example 416]; ≥ 25 nM
7) Cn1ncc(-c2ccc3c(c2)CN(C2CCC(=O)NC2=O)C3=O)c1-c1ccc2nccnc2c1 (stereo not shown) [Example 462]; ≥ 25 nM

###

// reported DC50 for each item listed
Target: CK1α (Homo sapiens, UniProt P48729+Q96SW2)
Construct: CSNK1A1-HiBit KI HEK293(LgBit) Cells; host or cells: HEK293(LgBit) knock-in cells
Sequence (P48729 whole entry, one chain of several): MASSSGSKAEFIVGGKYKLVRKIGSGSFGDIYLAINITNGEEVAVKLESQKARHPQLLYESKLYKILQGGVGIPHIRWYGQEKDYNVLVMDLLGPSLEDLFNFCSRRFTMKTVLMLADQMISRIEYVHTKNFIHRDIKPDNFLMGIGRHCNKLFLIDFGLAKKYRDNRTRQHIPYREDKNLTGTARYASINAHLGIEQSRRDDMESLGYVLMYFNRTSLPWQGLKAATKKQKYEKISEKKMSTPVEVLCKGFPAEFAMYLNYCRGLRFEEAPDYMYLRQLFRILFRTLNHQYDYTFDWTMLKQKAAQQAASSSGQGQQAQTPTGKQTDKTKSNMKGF
Assay: HiBiT degradation assay, CK1α, Procedure A
Format: cell-based
Details: six hours incubation
Outcome measure: DC50

1. Cn1cnc(-c2ccc3c(c2)CN(C2CCC(=O)NC2=O)C3=O)c1-c1cc(F)ccc1Cl (stereo not shown); ≥ 25 nM
2. Cn1cnc(-c2ccc3c(c2)CN(C2CCC(=O)NC2=O)C3=O)c1-c1ccc(F)cc1F (stereo not shown); < 25 nM
3. Cn1ncc(-c2ccc3c(c2)CN(C2CCC(=O)NC2=O)C3=O)c1-c1ccc(OCc2ccccc2)c(Cl)c1 (stereo not shown); ≥ 25 nM
4. Cn1ncc(-c2ccc3c(c2)CN(C2CCC(=O)NC2=O)C3=O)c1-c1cccc(C#N)c1 (stereo not shown); < 25 nM
5. O=C1CCC(N2Cc3cc(-c4cnn(-c5ccccc5)c4)ccc3C2=O)C(=O)N1 (stereo not shown); ≥ 25 nM
6. Cn1cc(-c2c(-c3ccc4c(c3)CN(C3CCC(=O)NC3=O)C4=O)nc(C3CC3)n2C)cn1 (stereo not shown); < 25 nM
7. Cn1ncc(-c2ccc3c(c2)CN(C2CCC(=O)NC2=O)C3=O)c1-c1ccc(-n2cccn2)cc1 (stereo not shown); < 25 nM
8. Cn1nc(-c2ccccc2)cc1-c1ccc2c(c1)CN(C1CCC(=O)NC1=O)C2=O (stereo not shown); ≥ 25 nM
9. Cn1ncc(-c2ccc3c(c2)CN(C2CCC(=O)NC2=O)C3=O)c1-c1ccc(C#N)cc1F (stereo not shown); ≥ 25 nM
10. Cn1cnc(-c2ccc3c(c2)CN(C2CCC(=O)NC2=O)C3=O)c1-c1ccccc1F (stereo not shown); < 25 nM
11. Cc1nn(C)cc1-c1c(-c2ccc3c(c2)CN(C2CCC(=O)NC2=O)C3=O)ncn1C (stereo not shown); ≥ 25 nM
12. Cn1cc(-c2ccc3c(c2)CN(C2CCC(=O)NC2=O)C3=O)nc1C1CCCCC1 (stereo not shown); < 25 nM
13. Cn1cnc(-c2ccc3c(c2)CN(C2CCC(=O)NC2=O)C3=O)c1-c1ccc(F)c(Cl)c1 (stereo not shown); < 25 nM
14. Cn1cnc(-c2ccc3c(c2)CN(C2CCC(=O)NC2=O)C3=O)c1-c1cccc(C#N)c1F (stereo not shown); < 25 nM
15. Cc1nocc1-c1c(-c2ccc3c(c2)CN(C2CCC(=O)NC2=O)C3=O)ncn1C (stereo not shown); < 25 nM
16. Cn1cnc(-c2ccc3c(c2)CN(C2CCC(=O)NC2=O)C3=O)c1-c1ccc(C#N)cc1 (stereo not shown); < 25 nM
17. Cn1cnc(-c2ccc3c(c2)CN(C2CCC(=O)NC2=O)C3=O)c1-c1ccc(-c2ccncc2)cc1 (stereo not shown); < 25 nM
18. Cn1cnc(-c2ccn3c(=O)n(C4CCC(=O)NC4=O)nc3c2)c1-c1ccccc1 (stereo not shown); ≥ 25 nM
19. Cc1ccc(-c2c(-c3ccc4c(c3)CN(C3CCC(=O)NC3=O)C4=O)cnn2C)c(Cl)c1 (stereo not shown); < 25 nM
20. Cn1ncc(-c2ccc3c(c2)CN(C2CCC(=O)NC2=O)C3=O)c1-c1ccc(NC(=O)c2ccccc2)cc1 (stereo not shown); ≥ 25 nM
21. Cn1ncc(-c2ccc3c(c2)CN(C2CCC(=O)NC2=O)C3=O)c1-c1ccc2[nH]ccc2c1 (stereo not shown); ≥ 25 nM
22. Cn1cnc(-c2ccc3c(c2)CN(C2CCC(=O)NC2=O)C3=O)c1-c1ccc(O)cc1 (stereo not shown); < 25 nM
23. Cn1ncc(-c2ccc3c(c2)CN(C2CCC(=O)NC2=O)C3=O)c1-c1cccc(N2CCCCC2)c1 (stereo not shown); ≥ 25 nM
24. O=C1CCC(N2Cc3cc(-c4cnn(C(F)F)c4-c4ccccc4)ccc3C2=O)C(=O)N1 (stereo not shown); < 25 nM
25. Cn1ncc(-c2ccc3c(c2)CN(C2CCC(=O)NC2=O)C3=O)c1-c1cccc(CN2CCCC2)c1 (stereo not shown); ≥ 25 nM
26. COc1ccc(C)cc1-c1c(-c2ccc3c(c2)CN(C2CCC(=O)NC2=O)C3=O)cnn1C (stereo not shown); < 25 nM
27. CNC(=O)c1ccc(-c2c(-c3ccc4c(c3)CN(C3CCC(=O)NC3=O)C4=O)cnn2C)cc1 (stereo not shown); ≥ 25 nM
28. Cn1ncc(-c2ccc3c(c2)CN(C2CCC(=O)NC2=O)C3=O)c1-c1ccc(Cl)c(C#N)c1 (stereo not shown); ≥ 25 nM
29. Cc1ccc(Cl)c(-c2c(-c3ccc4c(c3)CN(C3CCC(=O)NC3=O)C4=O)cnn2C)c1 (stereo not shown); < 25 nM
30. Cn1cnc(-c2ccc3c(c2)CN(C2CCC(=O)NC2=O)C3=O)c1-c1ccc(N2CCCC2)cc1 (stereo not shown); < 25 nM
31. Cn1ncc(-c2ccc3c(c2)CN(C2CCC(=O)NC2=O)C3=O)c1-c1ccc(S(=O)(=O)NC2CCCCC2)cc1 (stereo not shown); ≥ 25 nM
